Hi there, I'd appreciate the recorded self-cleavage kobs at 40 uM GlcN6P for every entry that follows.
B1: glmS ribozyme (parent)
chain: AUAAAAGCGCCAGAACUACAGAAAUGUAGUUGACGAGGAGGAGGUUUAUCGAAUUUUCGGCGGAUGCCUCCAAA

Variants of: B1
Protocol summary: self-cleavage kobs at 40 uM GlcN6P; higher = faster cleavage; RNA array
Experimental context: with glucosamine-6-phosphate
Variants at the floor of the assay were thinned out.

Short answer for A48C A64G : self-cleavage kobs at 40 uM GlcN6P was < 1e-05 s⁻¹

Short answer for U30C G43C : self-cleavage kobs at 40 uM GlcN6P was < 1e-05 s⁻¹

Short answer for U45G U65G : self-cleavage kobs at 40 uM GlcN6P was 7.22e-05 s⁻¹

Short answer for A6G G40U A48C G62A U65G : self-cleavage kobs at 40 uM GlcN6P was < 1e-05 s⁻¹

Short answer for A12U G62U C70U : self-cleavage kobs at 40 uM GlcN6P was < 1e-05 s⁻¹

Short answer for A12G A33G G37U : self-cleavage kobs at 40 uM GlcN6P was < 1e-05 s⁻¹

Short answer for G32U U65G : self-cleavage kobs at 40 uM GlcN6P was < 1e-05 s⁻¹

Short answer for G51U G63C : self-cleavage kobs at 40 uM GlcN6P was < 1e-05 s⁻¹

Short answer for G41A A53U : self-cleavage kobs at 40 uM GlcN6P was 5.42e-05 s⁻¹

Short answer for G35U U45A U57C C67A C68A : self-cleavage kobs at 40 uM GlcN6P was < 1e-05 s⁻¹

Short answer for G32C U49C : self-cleavage kobs at 40 uM GlcN6P was < 1e-05 s⁻¹

Short answer for G44A G59C : self-cleavage kobs at 40 uM GlcN6P was < 1e-05 s⁻¹

Short answer for U31C G44A : self-cleavage kobs at 40 uM GlcN6P was < 1e-05 s⁻¹

Short answer for C11G G32U : self-cleavage kobs at 40 uM GlcN6P was < 1e-05 s⁻¹

Short answer for C11U A33C A53U U57G G60U : self-cleavage kobs at 40 uM GlcN6P was < 1e-05 s⁻¹

Short answer for G13C G59U : self-cleavage kobs at 40 uM GlcN6P was < 1e-05 s⁻¹

Short answer for G37A A39C G40U : self-cleavage kobs at 40 uM GlcN6P was < 1e-05 s⁻¹
